These entries and their values trace back to the supplement of paper PMC10567573.

Listed here are variants together with their documented protein stability index.
B1: INTS4 (parent)
chain: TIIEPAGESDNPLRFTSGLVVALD

Variants of: B1
Assay: protein stability index of a GFP-peptide fusion (GPS, HEK-293T) (PSI 1-6); higher = more stable;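 also: lentivirally expressed fusions sorted by FACS into six bins by GFP to DsRed ratio, PSI derived from sequencing read proportions per bin multiplied by bin number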
Settings: c terminus: a fixed tail appended
// return just the number, without any unit appended

Observe how each entry below is paired with its result.
What value of protein stability index has been recorded for this entry: `P5N` 2.91

What value of protein stability index has been recorded for this entry: `P12T` 2.93

Shift focus to the following entry.
What value of protein stability index has been recorded for this entry: `R14T` 2.96
